# Tested On: Ubiquitin carboxyl-terminal hydrolase 30 (Homo sapiens)
# Procedure Text: inhibitors of ubiquitin-specific protease 30 deubiquitylating enzyme, concentration dependence, in vitro biochemical, validation of primary hits (AID 1645865)
# Assay Conditions: purified USP30, Ub-rhodamine cleavage, fluorescence, 2 h
The source made the active and inactive calls.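 Rule for the calls: active = maximal inhibition of the USP30 enzyme reaching 30% or more across the dose series; inactive = the rest.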
Outcome codes: active, inactive

Molecule	Assigned Label
O=S1(=O)CCN(CC2CCCO2)c2c(Oc3ccccc3)nc(F)c(Cl)c21 (stereo unspecified)	inactive
Cc1cccc(NC(=O)c2nn(C)c3ccccc3c2=O)c1	active
O=C(NCCN1CCCC1)C1CCN(c2cnc(N3CCCCC3)nc2)CC1	inactive
COc1ccc(C2C(C(=O)C(C)(C)C)N3c4ccccc4C=CC3C23C(=O)c2ccccc2C3=O)c(OC)c1 (stereo unspecified)	inactive
O=C(NC(Cc1ccccc1)c1nc2ccccc2[nH]1)c1ccccn1 (stereo unspecified)	inactive
CC(C)(C)c1ccc(C(=O)Nc2ccc(Cn3cncn3)cc2)cc1	inactive

====

# Tested On: Ubiquitin carboxyl-terminal hydrolase 30 (Homo sapiens)
# Procedure Text: inhibitors of ubiquitin-specific protease 30 deubiquitylating enzyme, concentration dependence, in vitro biochemical, validation of primary hits (AID 1645865)
# Assay Conditions: purified USP30, Ub-rhodamine cleavage, fluorescence, 2 h
Activity calls are given as the source filed them.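 Rule for the calls: active = maximal inhibition of the USP30 enzyme reaching 30% or more across the dose series; inactive = the rest.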
Outcome codes: yes (1) (active), no (0) (inactive)

Compound	Assigned Label
CCc1ccc2[nH]c3c(c(=O)c2c1)CN(CC(=O)NCc1ccc2c(c1)OCO2)CC3	yes (1)
O=C(CCCC(=O)c1ccccc1)Nc1ccc(F)cc1	yes (1)
COc1ccc(C(=O)Nc2nc(-c3ccc4c(c3)NC(=O)CO4)c(C)s2)cc1OC	yes (1)
CCCCc1nc2sc3c(NCCN4CCOCC4)ncnc3c2c2c1CCC2	no (0)
O=C(Nc1ccc2c(c1)OCO2)C1CCN(Cc2nc3ccccc3s2)CC1	no (0)
COc1ccc(S(=O)(=O)N2CCN3Cc4ccccc4N(C)CC3C2)cc1 (stereo not drawn)	no (0)
CCNc1oc(-c2ccc(S(=O)(=O)N3CCCCC3)cc2)nc1C#N	yes (1)
CCN1C(=O)COc2ccc(NC(=O)c3ccc(OCc4nonc4C)cc3)cc21	yes (1)
Cc1cccc(N2C(=O)/C(=C\c3ccc4c(c3)OCCO4)c3ccccc3C2=O)c1	no (0)
COc1c(O)cc(CC(=O)O)c(C(C)=O)c1O	no (0)
O=C(c1ccc(COc2cccc3ccccc23)o1)N1CCC(Cc2ccccc2)CC1	no (0)
COc1ccc(OC)c(NC(=O)CNC(=O)c2cc3c(OC)cccc3[nH]2)c1	no (0)
COC(=O)c1ccc(Cn2cnc3ccc(F)cc3c2=O)o1	no (0)
COc1cccc(NC(=O)c2nnn(-c3ccccc3)n2)c1	no (0)
Cc1cc2nc(/C=C/c3ccccc3)n(Cc3cccc(F)c3)c2cc1C	no (0)
COc1cccc(N2CCN(C(=O)c3cc(NC(C)=O)cc4nc(C)ccc34)CC2)c1	no (0)
Cn1ccc2c(cc(C(=O)NCCC3=CCCCC3)n2C)c1=O	no (0)
CC1(O)CC(=O)c2c(cc3cc(O)cc(O)c3c2O)C1 (stereo not drawn)	yes (1)

====

# Tested On: UniProt Q70CQ3
# Sequence (Q70CQ3 whole entry, looked up): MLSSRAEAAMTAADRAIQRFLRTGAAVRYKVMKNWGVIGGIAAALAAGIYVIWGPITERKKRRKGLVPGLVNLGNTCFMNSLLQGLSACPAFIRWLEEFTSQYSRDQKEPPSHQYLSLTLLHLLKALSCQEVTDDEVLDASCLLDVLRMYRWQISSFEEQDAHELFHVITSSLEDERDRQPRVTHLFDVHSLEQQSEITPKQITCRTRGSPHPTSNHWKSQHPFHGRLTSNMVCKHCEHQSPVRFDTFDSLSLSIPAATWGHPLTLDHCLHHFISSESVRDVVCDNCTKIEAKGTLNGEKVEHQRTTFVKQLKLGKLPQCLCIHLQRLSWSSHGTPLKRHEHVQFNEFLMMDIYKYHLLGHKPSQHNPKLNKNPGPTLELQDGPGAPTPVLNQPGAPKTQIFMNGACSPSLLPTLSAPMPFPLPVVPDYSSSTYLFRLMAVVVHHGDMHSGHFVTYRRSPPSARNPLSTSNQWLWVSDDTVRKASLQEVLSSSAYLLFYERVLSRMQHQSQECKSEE
# Procedure Text: inhibitors of ubiquitin-specific protease 30 deubiquitylating enzyme, concentration dependence, in vitro biochemical, validation of primary hits (AID 1645865)
# Assay Conditions: purified USP30, Ub-rhodamine cleavage, fluorescence, 2 h
Calls of active or inactive are those of the source.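 Rule for the calls: active = maximal inhibition of the USP30 enzyme reaching 30% or more across the dose series; inactive = the rest.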
Outcome codes: active, inactive

Molecule	Assigned Label
Cc1cc(N2CCN(c3ncccn3)CC2)nc2ccc(NC(=O)c3ccncc3)cc12	active
CSc1ccccc1NC(=O)c1ccc(-n2cccn2)nn1	active
CN(C)Cc1ccc(C(=O)Nc2ccc(-c3nccs3)cc2)cc1	inactive
O=C(c1cc(-c2ccncc2)n[nH]1)N1CCC(C(=O)N2CC=C(c3ccccc3)CC2)CC1	active
COC(=O)C1C(c2ccc(Cl)cc2Cl)C2(C(=O)c3ccccc3C2=O)C2C=Cc3ccccc3N12 (centres undefined)	inactive
Cc1ccc(C)c(Cn2nnc3c(=O)[nH]c(C4CCN(S(=O)(=O)c5ccc(S(=O)(=O)NC6CC6)cc5)CC4)nc32)c1	active
Cc1ccc(O)c(-c2cc(C(=O)Nc3ccccc3Cl)[nH]n2)c1	active
Cn1c(=O)/c(=C/c2ccccc2)[nH]c(=O)/c1=C/c1ccccc1	active
Cc1cccc(C)c1NC(=O)Cn1c(=O)n(CCCCC(=O)NCc2ccc3c(c2)OCO3)c(=O)c2ccccc21	active
O=S(=O)(c1cccc2cccnc12)N(CCc1ccccc1)C1CCN(CCc2ccc(Cl)cc2)CC1	inactive
O=S(=O)(c1ccccc1)N1CCN2Cc3ccccc3N(Cc3ccccc3)CC2C1 (centres undefined)	inactive
CC1CCN(c2cc(-n3cnc(C(=O)N4CCCC(C)C4)c3)ncn2)CC1 (centres undefined)	inactive
COc1ccc(/C=C/c2ccnc3nc(-n4cccc4)nn23)cc1	inactive
CN(C(=O)c1ccncc1)[C@H]1CC[C@@]2(C)C[C@H](c3ccccc3)C[C@](C)(O2)[C@@H]1O	inactive
O=C(NC1CCN(Cc2ccccc2)CC1)c1[nH]nc2c1COc1ccccc1-2	inactive
O=C1NC(=O)/C(=C/c2ccc(OC(=O)c3ccc(Cl)cc3Cl)cc2)N1	active
CC(C)(C)OC(=O)N1CCN(C(=O)Cn2c(=O)nc(-c3ccccc3)c3ccccc32)CC1	inactive
Cc1ccc2nc(CNC(=O)c3ccccc3-c3nc(-c4ccc(F)cc4)no3)[nH]c2c1	active
CCCCCCCc1cc(O)cc(O)c1	active
CS(=O)(=O)c1ccc(NC(=O)C2CN(c3nc4c(F)cccc4s3)C2)cc1	active
COC1C(O)=C2C(=O)O/C(C)=C/C=C/C=C/C=C/CC(c3ccccc3)NC(=O)/C=C/C=C/C=C\C=C\C2(C)C1O (centres undefined)	inactive
Cc1ccc(NC(=O)CCC(=O)Nc2ccc3nc(N4CCCCC4)cc(C)c3c2)c(Br)c1	active
COc1cccc(N2CCN(C(=O)C3CCN(c4nc(NC(C)=O)ns4)CC3)CC2)c1	inactive
COc1ccc(CNC(=O)CCc2nnc3n(Cc4ccccc4Cl)c(=O)c4ccccc4n23)cc1	active
O=C(Nc1cccc2ccccc12)N1CCC(c2nc3c(nnn3Cc3ccc(F)cc3)c(=O)[nH]2)CC1	active
COc1ccc(OC)c(C2CC(=O)Nc3n[nH]c(-c4ccccc4)c32)c1 (centres undefined)	active
COc1ccc(C(=O)Nc2ccc3c(c2)C(=O)N(C)c2ccccc2O3)cc1	inactive
NS(=O)(=O)c1ccc(NC(=O)Cn2cnc3cc([N+](=O)[O-])ccc3c2=O)cc1	inactive
CC(C)Cn1cc(OC(=O)c2ccc(F)cc2)c2c1nc(-c1ccc(F)cc1)n1c3ccccc3nc21	inactive
